Measured values drawn from patent US8134015B2 for this set.

# system.under.test: rat NaPi-2b (Rattus norvegicus, UniProt Q9JJ09)
# Sequence (Q9JJ09 1-695): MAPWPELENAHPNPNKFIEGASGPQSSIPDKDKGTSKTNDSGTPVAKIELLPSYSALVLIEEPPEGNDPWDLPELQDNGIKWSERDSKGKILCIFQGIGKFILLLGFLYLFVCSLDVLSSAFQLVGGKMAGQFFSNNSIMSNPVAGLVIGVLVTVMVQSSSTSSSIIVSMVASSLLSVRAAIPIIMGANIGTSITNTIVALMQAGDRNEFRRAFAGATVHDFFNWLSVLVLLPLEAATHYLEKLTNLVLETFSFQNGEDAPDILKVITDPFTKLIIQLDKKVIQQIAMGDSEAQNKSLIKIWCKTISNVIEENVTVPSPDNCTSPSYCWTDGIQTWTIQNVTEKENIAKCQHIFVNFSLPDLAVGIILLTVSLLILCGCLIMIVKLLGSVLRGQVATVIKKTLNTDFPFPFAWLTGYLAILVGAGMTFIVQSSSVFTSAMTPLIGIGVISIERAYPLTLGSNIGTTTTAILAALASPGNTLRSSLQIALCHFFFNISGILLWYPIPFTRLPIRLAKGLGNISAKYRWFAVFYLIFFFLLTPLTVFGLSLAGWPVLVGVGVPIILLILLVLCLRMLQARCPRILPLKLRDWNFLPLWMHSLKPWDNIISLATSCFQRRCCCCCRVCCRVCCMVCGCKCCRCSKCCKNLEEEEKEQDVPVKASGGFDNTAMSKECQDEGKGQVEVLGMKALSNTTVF
# test.description: Sodium-dependent phosphate uptake of Xenopus oocytes which expressed NaPi-2b (32P)
# test.parameters: Xenopus oocytes expressing rat NaPi-2b, 32P radioactive phosphorus; read-out: IC50 (phosphate uptake inhibitory activity)
Give measured pIC50 for each item. Keep answers brief.
Answers are plain numbers, as −log10 of the molar value.

These solved cases illustrate the format of a correct answer.
smiles.notation: COc1ccc(/C=N/NC(=O)c2cc(N3CCOCC3)ccc2NC(=O)c2cccc(CSCCO)c2)cc1
pIC50: 5.57
--
smiles.notation: COc1ccc(C(=O)Nc2ccc(Br)cc2C(=O)N/N=C/c2ccccc2C)cc1OC
pIC50: 5.10
--
smiles.notation: Cc1ccc(/C=N/NC(=O)c2cc(Cl)ccc2NC(=O)c2cccc(CN(CCO)CCO)c2)cc1C
pIC50: 6.06

Continue with the next compound.
Query: Would you mind telling me what pIC50 value was observed for Cc1ccc(/C=N/NC(=O)c2cc(Br)ccc2NC(=O)c2ccc(CNCCCN(C)c3ccccc3)cc2)cc1C ?
Result: 4.72
